The values you see were collected from ChEMBL document CHEMBL1124642.

species: Cavia porcellus; assay: Effective dose for guinea pig ileum contractions; type: functional; conditions: read-out: ED50 (the source's name)
Measured metric: EC50 (µM)
API: value field is a number in µM; no unit string.

{"columns": ["Compound", "EC50, µM"],
 "data": [
  ["CCN1C(=O)OCC1Cc1cncn1C (stereo not drawn)", 1]
]}

Endpoint output: EC50 of CCN1C(=O)OCC1Cc1c[nH]cn1 (stereo not drawn) . Value? 180

Query CCN1C(=O)OCC1Cc1cn(C)cn1 (stereo not drawn) next 14
